system: A549; assay: NCI tumour cell line growth inhibition, 48 h
The source made the active and inactive calls. No stated cut-off is given here; in the data, active = GI50 up to about 1.1 µM and inactive = higher.
Outcomes: T = active, F = inactive

1) COc1c(C)c(OC)c2c(c1O)[C@@H]1[C@@H]3Cc4c(OC)c(C)c(OC)c(O)c4[C@H](CNC(=O)c4cnc5ccccc5n4)N3[C@@H](C#N)[C@H](C2)N1C	T
2) CC(=O)OC1CCn2nnc(CO[Si](C)(C)C(C)(C)C)c21 (stereo not drawn)	F
3) COC(=O)CCc1ccc2c(c1)C(=O)CC2	F
4) Cc1c2c(Cl)c3c(c(Cl)c2c(C)c2c(Cl)c4c(c(Cl)c12)C(c1ccccc1)(c1ccccc1)C4(c1ccccc1)c1ccccc1)C(c1ccccc1)(c1ccccc1)C3(c1ccccc1)c1ccccc1	F
5) NC(=S)Nc1c(S(N)(=O)=O)cc(S(N)(=O)=O)c(Cl)c1Cl	F
6) CCOC(=O)/C=C(/C(=O)OCC)n1cc(C)c(=O)n(/C(=C/C(=O)OCC)C(=O)OCC)c1=O	F
7) Clc1nc(Nc2nc3ccccc3[nH]2)nc(Cl)c1-c1ccccc1	F
8) COc1ccccc1CNC(=O)[C@H](Cc1ccc(O)cn1)NC(C)=O	F

###

tested on: SNB-75; test: NCI tumour cell line growth inhibition, 48 h
Activity calls are given as the source filed them. Cut-off read from the data, not from the text of the source: active = GI50 up to about 1.1 µM and inactive = higher.
READOUT_LABEL: GI50

1. COc1ccc(NC(=O)CC(=O)N2N=C(C)C(/N=N\c3ccc(S(=O)(=O)c4ccc(/N=N/C5C(=O)N(C(=O)CC(=O)Nc6ccc(OC)cc6)N=C5C)cc4)cc3)C2=O)cc1 (centres undefined)	24.9 µM (inactive)
2. c1ccc2c(CNCCCCCCCCNCc3cccc4ccccc34)cccc2c1	1.9 µM (inactive)
3. O=[N+]([O-])c1ccc2[nH]ncc2c1Cl	35.9 µM (inactive)
4. C=C1CC2[C@H](C)C(=O)CCC2(C)C2=C1C1CCC(C(C)CCC(=C)C(C)C(=O)O)C1(C)CC2=O (some centres undefined)	95.5 µM (inactive)
5. O=C1CC2CCN(C(=O)c3ccccc3)CC2CCN1 (centres undefined)	> 100 µM (inactive)
6. NCCCC1NC(=O)/C(=C(O)/C=C/C2CCC[C@@H]2CC2SCCS2)C1=O (some centres undefined)	> 100 µM (inactive)
7. Cc1ccc(C(=O)C#Cc2cn(C3CC(O)C(CO)O3)c(=O)[nH]c2=O)cc1 (centres undefined)	> 100 µM (inactive)
8. OC1=CN=C(c2ccccc2)Oc2ccccc21	30.7 µM (inactive)
9. CC1=C(C(=O)Nc2cc(=O)n(C)c(=O)n2C)C(c2ccco2)C(C(=O)Nc2cc(=O)n(C)c(=O)n2C)=C(C)N1	44.8 µM (inactive)
10. COc1ccc(-c2cc(C3CC3)nc(SCC(=O)O)c2C#N)cc1	> 100 µM (inactive)
11. O=[N+]([O-])C=C(c1ccc(Cl)cc1)c1ccc(Cl)cc1	21.7 µM (inactive)
12. CCSc1n/c(=C\c2ccc(N(C)C)cc2)c2nnnn12	> 100 µM (inactive)
13. CN(C)CCn1c(=O)c2ccc(NCCN3CCNCC3)c3c(=O)c4ccccc4n(c1=O)c23	2.13 µM (inactive)
14. COc1ccc(C2CC(=O)c3c(O)cc(O)cc3O2)cc1O (centres undefined)	53.8 µM (inactive)
15. C/C=C1/CN2CCC34c5ccccc5N(C)C23C2CC1C4(C(=O)OC)C(O)O2 (centres undefined)	> 100 µM (inactive)
16. COc1cc2cc[n+]3c4cc(OC)c(OC)cc4c(C)cc3c2cc1OC	44.7 µM (inactive)
17. CC(CN1CC(=O)NC(=O)C1)N1CC(=O)NC(=O)C1 (centres undefined)	306 µM (inactive)
18. Cc1cccc2c1N(C(=O)/C=C\C(=O)O)C(c1c(C)[nH]c3ccccc13)C2 (centres undefined)	> 10 µM (inactive)
19. O=C(O)c1cc(=O)c2c(OCC(O)COc3cccc4oc(C(=O)O)cc(=O)c34)cccc2o1	> 61 µM (inactive)
20. O=C(NCC(=O)N1CCOC1=O)OCc1ccccc1	> 100 µM (inactive)
21. COS(=O)c1cc(Cl)cc(Cl)c1O (centres undefined)	87.7 µM (inactive)
22. CCOC(=O)C(O)(NC(=O)c1ccccc1F)C(F)(F)F (centres undefined)	> 100 µM (inactive)
23. Cc1ccc(-c2n[nH]c(=O)n2/N=C\c2ccc([N+](=O)[O-])cc2)cc1	97.5 µM (inactive)
24. CN/C(=N\N)NS(=O)(=O)c1cc(C)c(Cl)cc1S	> 100 µM (inactive)
25. CCOC(=O)/C=C(/C(=O)OCC)n1cc(Cl)c(=O)n(CC(=O)OCC)c1=O	5.13 µM (inactive)
26. CNc1cc(N)ccc1C(=O)N1CCC[C@H]1CO	> 100 µM (inactive)
27. O=C1[C@@H]2C(c3ccncc3)=NO[C@@H]2C(=O)N1c1ccc(Cc2ccc(N3C(=O)[C@H]4C(c5ccncc5)=NO[C@H]4C3=O)cc2)cc1	> 100 µM (inactive)
28. CC1CC[C@@]2(OC1)OC1C[C@H]3[C@@H]4CC=C5C[C@@H](OC6OC(CO)C(OC7OC(CO)C(O)C(O)C7O)C(O)C6OC6OC(C)C(O)C(O)C6O)CC[C@]5(C)[C@H]4CC[C@]3(C)C1[C@@H]2C (some centres undefined)	2.07 µM (inactive)
29. CNN1C(=O)c2c(C)c(C)c(C#N)c(N)c2C1=O	83.2 µM (inactive)
